All figures here come from BindingDB's records for doi:10.1021/jm000468c.

Kindly supply the reported pIC50 values for the records listed here.
assay: Inhibitory activity was determined against Neuraminidase A from influenza virus A/Tokyo/3/67
One number for each entry, as −log10 of the molar value.

// each listed molecule needs a value for pIC50
1. CC(C)N(CCCO)C(=O)N1C[C@H](N)[C@H](C(=O)O)C1
2. CC(C)N(CCCCCO)C(=O)N1C[C@H](N)[C@H](C(=O)O)C1
3. CC(C)(C)OC(=O)N1C[C@@H](N)[C@@H](C(=O)O)C1
4. CC(C)N(CCCN)C(=O)N1C[C@H](N)[C@H](C(=O)O)C1
5. CCN(C(=O)N1C[C@H](N)[C@H](C(=O)O)C1)C(C)C

A.
[5.68, 5.70, 4.30, 4.34, 5.80]

// batch mode: one pIC50 value per listed entry
1. CCC(CC)C(=O)N1C[C@H](N)[C@H](C(=O)O)C1
2. CC(C)N(C(=O)N1C[C@H](N)[C@H](C(=O)O)C1)C(C)C
3. CC(C)N(CCc1ccccn1)C(=O)N1C[C@H](N)[C@H](C(=O)O)C1
4. CCN(CC)C(=O)N1C[C@H](N)[C@H](C(=O)O)C1
5. CCN(C(=O)N1C[C@@H](C(=O)O)[C@@H](N)[C@@H]1CNC(C)=O)C(C)C

A.
1. 4.66
2. 5.40
3. 5.89
4. 4.60
5. 5.12
